System: HEK-293T
Test: Multiplex assay against HEK293T
Type: toxicity, cell-based
Conditions: human, 48 h, 10 µM, compound concentration 10 uM, replicate 1
Items are presented alongside their recorded Population Pyknosed Nuclei (%).
attribute_measured: Population Pyknosed Nuclei (%)

>  <compound>
Cc1nn(C)c2nc(NNC(=O)Nc3cc(Cl)nc(Cl)c3)cc(C(C)C)c12

>  <experimental_target>
HEK-293T

>  <attribute_measured>
Population Pyknosed Nuclei (%)

>  <measured_result>
18%

$$$$
>  <compound>
Cl.Cl.OCCOCCN1CCN(C(c2ccccc2)c2ccc(Cl)cc2)CC1 (stereo not given) [HYDROXYZINE HYDROCHLORIDE]

>  <experimental_target>
HEK-293T

>  <attribute_measured>
Population Pyknosed Nuclei (%)

>  <measured_result>
9%

$$$$
>  <compound>
Cc1cc(=O)n(C)c2cc(N3C(=O)CC[C@H](NS(=O)(=O)CC(C)C)[C@H]3c3ccc(Cl)cc3)ccc12

>  <experimental_target>
HEK-293T

>  <attribute_measured>
Population Pyknosed Nuclei (%)

>  <measured_result>
10%

$$$$
>  <compound>
O=C(Nc1cc(-c2ccccc2)nn1-c1ccccc1F)c1ccc([N+](=O)[O-])cc1

>  <experimental_target>
HEK-293T

>  <attribute_measured>
Population Pyknosed Nuclei (%)

>  <measured_result>
9%

$$$$
>  <compound>
O=c1nc2[nH]c3ccccc3nc-2c(=O)[nH]1

>  <experimental_target>
HEK-293T

>  <attribute_measured>
Population Pyknosed Nuclei (%)

>  <measured_result>
7%

$$$$

###

Tested on: U2OS
Assay: Multiplex assay against U2OS
Type: toxicity, cell-based
Conditions: human, 24 h, 10 µM, compound concentration 10 uM, replicate 2
Items are presented alongside their recorded Population Membrane Permeable-Phenotype (%).
attribute_measured: Population Membrane Permeable-Phenotype (%)

>  <compound>
CCC(=O)OCC(=O)[C@@]1(OC(=O)CC)[C@@H](C)C[C@H]2[C@@H]3CCC4=CC(=O)C=C[C@]4(C)[C@@]3(Cl)[C@@H](O)C[C@@]21C [BECLOMETHASONE DIPROPIONATE]

>  <measured_result>
43

$$$$
>  <compound>
COc1cc2nc(N3CCN(C(=O)c4ccco4)CC3)nc(N)c2cc1OC.Cl [PRAZOSIN HYDROCHLORIDE]

>  <measured_result>
7

$$$$
>  <compound>
COc1cc(C(=O)N2CC[C@@H](O)[C@@H](N)C2)cc2nc(-c3cc4ccccc4n3CC3CC3)n(C)c12.Cl

>  <measured_result>
50

$$$$
>  <compound>
COCCCN1CCC(NC(=O)c2cc(Cl)c(N)c3c2OCC3)CC1 [PRUCALOPRIDE]

>  <measured_result>
3

$$$$
>  <compound>
CC(C)C[C@H](CO)Nc1nc(S[C@@H](C)c2ccccc2)nc2nc(N)sc12

>  <measured_result>
9

$$$$
>  <compound>
Cn1cc(C(=O)OCC2CCN(CCNS(C)(=O)=O)CC2)c2ccccc21

>  <measured_result>
12

$$$$
>  <compound>
CCCCCCNC(=O)Nc1ccc(S(=O)(=O)Nc2ccc(CCNC[C@H](O)COc3ccc(O)cc3)cc2)cc1

>  <measured_result>
9

$$$$
>  <compound>
CCn1c(-c2nc3cc(C(=O)N4CCCC(N)C4)ccc3n2C)cc2ccccc21.Cl (configuration not stated)

>  <measured_result>
20

$$$$
>  <compound>
CN1CCN(c2ccc(Nc3c4ccccc4nc4ccccc34)cc2)CC1.Cl.Cl.O

>  <measured_result>
96

$$$$
>  <compound>
CN1CCC(C(=O)c2cccc(NC(=O)c3c(F)cc(F)cc3F)n2)CC1

>  <measured_result>
10

$$$$
>  <compound>
Nc1nc(-c2ccco2)c2cnn(Cc3ccccc3F)c2n1

>  <measured_result>
5

$$$$
>  <compound>
Cc1cc(NC(=O)NCCN2CCC(O)(Cc3ccccc3)CC2)c2ccccc2n1

>  <measured_result>
11

$$$$
>  <compound>
Cl.Cl.OCCOCCN1CCN(C(c2ccccc2)c2ccc(Cl)cc2)CC1 (configuration not stated) [HYDROXYZINE HYDROCHLORIDE]

>  <measured_result>
12

$$$$
>  <compound>
CCCCC[C@H](O)/C=C/[C@H]1[C@H](O)CC(=O)[C@@H]1CCCCCCC(=O)O

>  <measured_result>
4

$$$$
>  <compound>
O=c1ccc2ccc(OCCCCN3CCN(c4cccc5sccc45)CC3)cc2[nH]1

>  <measured_result>
56

$$$$
>  <compound>
CC(C)(C)c1ccc(CSc2cnn(C(C)(C)C)c(=O)c2Cl)cc1

>  <measured_result>
6

$$$$
>  <compound>
O=C(O)CCC/C=C\CC1C(O)CC(O)C1/C=C/C(O)COc1cccc(Cl)c1 (configuration not stated)

>  <measured_result>
11

$$$$

Where do the numbers come from? From ChEMBL document CHEMBL5058577.
